For each record, write down the corresponding pIC50.
# TGT: HLA B*0702 (human)
# ASSAY_PROCEDURE: competition vs radiolabeled probe peptide, purified HLA
Formally, pIC50 is defined as -log10 of the concentration c, with c in mol/L.

Measured pIC50, GPLVAGGLL (modifications not checked) : 7.17

Entry RPGYHTQTA (modifications not checked) , pIC50 reported as 8.00

Cited source: patent US20160130305A1
